tested on: breast MCF-7; assay: MTT cytotoxicity evaluation, MCF-7; details: Homo sapiens, MCF7, read-out: IC50 (μM ± SD) MCF-7
Lab note: compare IC50 with 10 µM, writing True if less and False if equal or more.

Answer whether the compound CC(=NNc1nc(-c2ccccc2)cs1)c1nn(-c2ccc(S(N)(=O)=O)cc2)c(=N)s1 has IC50 strictly less than 10 µM
True

Answer whether the compound CC(=NNC(=S)Nc1ccc(Cl)cc1)c1nn(-c2ccc(S(N)(=O)=O)cc2)c(=N)s1 has IC50 strictly less than 10 µM
False

Answer whether the compound C=CCNC(=S)NN=C(C)c1nn(-c2ccc(S(N)(=O)=O)cc2)c(=N)s1 has IC50 strictly less than 10 µM
False

Answer whether the compound CC(=O)c1sc(NN=C(C)c2nn(-c3ccc(S(N)(=O)=O)cc3)c(=N)s2)nc1C has IC50 strictly less than 10 µM
False

Answer whether the compound CC(=NNC(=S)Nc1ccccc1)c1nn(-c2ccc(S(N)(=O)=O)cc2)c(=N)s1 has IC50 strictly less than 10 µM
False

Answer whether the compound CCOC(=O)c1sc(NN=C(C)c2nn(-c3ccc(S(N)(=O)=O)cc3)c(=N)s2)nc1C has IC50 strictly less than 10 µM
False

Answer whether the compound CC(=O)c1nn(-c2ccc(S(N)(=O)=O)cc2)c(=N)s1 has IC50 strictly less than 10 µM
False

Answer whether the compound CC(=NN=c1scc(-c2ccccc2)n1-c1ccc(Cl)cc1)c1nn(-c2ccc(S(N)(=O)=O)cc2)c(=N)s1 [Compound 12d] has IC50 strictly less than 10 µM
True

Answer whether the compound CC(=NNC(N)=S)c1nn(-c2ccc(S(N)(=O)=O)cc2)c(=N)s1 has IC50 strictly less than 10 µM
True

Answer whether the compound CC(=NNC1=NC(=O)CS1)c1nn(-c2ccc(S(N)(=O)=O)cc2)c(=N)s1 has IC50 strictly less than 10 µM
False

Answer whether the compound CNC(=S)NN=C(C)c1nn(-c2ccc(S(N)(=O)=O)cc2)c(=N)s1 has IC50 strictly less than 10 µM
True

Answer whether the compound C=CCn1c(-c2ccccc2)csc1=NN=C(C)c1nn(-c2ccc(S(N)(=O)=O)cc2)c(=N)s1 [Compound 12b] has IC50 strictly less than 10 µM
False

====

tested on: colon carcinoma Caco2; experiment: MTT cytotoxicity evaluation, Caco2; format: cell-based; settings: Homo sapiens, Caco-2, read-out: IC50 (μM ± SD) Caco2
Would you kindly list IC50 for each of these molecules?
API: value field is a number in µM; no unit string.

Considering CC(=NNC1=NC(=O)CS1)c1nn(-c2ccc(S(N)(=O)=O)cc2)c(=N)s1 [Compound 8] , its IC50 with colon carcinoma Caco2 was recorded as 5.31

Considering C=CCNC(=S)NN=C(C)c1nn(-c2ccc(S(N)(=O)=O)cc2)c(=N)s1 [Compound 9b] , its IC50 with colon carcinoma Caco2 was recorded as 74.8

Considering CC(=NNC(N)=S)c1nn(-c2ccc(S(N)(=O)=O)cc2)c(=N)s1 [Compound 3] , its IC50 with colon carcinoma Caco2 was recorded as 14.9

Considering CC(=NN=c1scc(-c2ccccc2)n1-c1ccc(Cl)cc1)c1nn(-c2ccc(S(N)(=O)=O)cc2)c(=N)s1 [Compound 12d] , its IC50 with colon carcinoma Caco2 was recorded as 1.06

====

system: colon carcinoma Caco2; assay: MTT cytotoxicity evaluation, Caco2; assay type: cell-based; settings: Homo sapiens, Caco-2, read-out: IC50 (μM ± SD) Caco2
Would you kindly list IC50 for each of these compounds?
API: value field is a number in µM; no unit string.

The compound CC(=NNc1nc(-c2ccccc2)cs1)c1nn(-c2ccc(S(N)(=O)=O)cc2)c(=N)s1 showed IC50 equal to 3.19

The compound CC(=NNC(=S)Nc1ccccc1)c1nn(-c2ccc(S(N)(=O)=O)cc2)c(=N)s1 showed IC50 equal to 34.7

The compound CNC(=S)NN=C(C)c1nn(-c2ccc(S(N)(=O)=O)cc2)c(=N)s1 showed IC50 equal to 1.01

The compound CC(=O)c1nn(-c2ccc(S(N)(=O)=O)cc2)c(=N)s1 showed IC50 equal to 11.1
